# Tested on: muMax20 (Max(13-93) K31hArg/K57hArg, M65Nle)
# assay_method_text: PBM 8-mer E-score (E-score (rank enrichment, -0.5 to 0.5)); higher = stronger preferential binding
Whole data set: some 33,000 sequences, median “E-score (rank enrichment, -0.5 to 0.5)” near -0.0068, cut for the highest 2% near 0.24. The entries come from a sample that favours the highest values as a whole.
endpoint_label: PBM 8-mer E-score
# print the numeric value only

# example entries with known answers
>>> quantitative_readout("CCGTGCAA")
-0.0343
>>> quantitative_readout("CCGTGCAC")
0.0347
>>> quantitative_readout("ACGTGCAC")
0.334
>>> quantitative_readout("AAGTGCAT")
0.132
>>> quantitative_readout("ACGTGCAT")
0.33
>>> quantitative_readout("AGAGTAAG")
0.117
>>> quantitative_readout("TAAACAAA")
0.184
>>> quantitative_readout("GCCGCCCA")
-0.267

Specify reported PBM 8-mer E-score for the sequence shown: ACTTCAAT
0.173

# return recorded PBM 8-mer E-score for input AGGTGCAT
0.0164

For the sequence GCGTGCAC , give its measured PBM 8-mer E-score value.
0.208

###

# System: muMax20 (Max(13-93) K31hArg/K57hArg, M65Nle)
# assay_method_text: PBM 8-mer E-score (E-score (rank enrichment, -0.5 to 0.5)); higher = stronger preferential binding
Whole data set: some 33,000 sequences, median “E-score (rank enrichment, -0.5 to 0.5)” near -0.0068, cut for the highest 2% near 0.24. Shown is part of a subset that was picked to be rich in the highest values.
endpoint_label: PBM 8-mer E-score
Number only, no unit.

Here's what some known entries look like.
>>> quantitative_readout("AAAGCTAA")
-0.00207
>>> quantitative_readout("CGGTAACA")
-0.0167
>>> quantitative_readout("CTACTATC")
0.132
>>> quantitative_readout("CAACAATA")
0.324
>>> quantitative_readout("AATAAATT")
0.213

Tell us which PBM 8-mer E-score value is on record for AAATCAAG
0.141

Answer with reported PBM 8-mer E-score of ATCAAGCA
0.012

###

# Test system: muMax20 (Max(13-93) K31hArg/K57hArg, M65Nle)
# assay_method_text: PBM 8-mer E-score (E-score (rank enrichment, -0.5 to 0.5)); higher = stronger preferential binding
In all, about 33,000 sequences were measured (“E-score (rank enrichment, -0.5 to 0.5)”: median about -0.0068, highest 2% from about 0.24 on). The full list was thinned out, with the highest values kept by preference.
# cutoff 0.2 applies to PBM 8-mer E-score; >= gives yes, < gives no

Worked cases, answers included:
>>> label_value("AGTTTATA")
"yes"
>>> label_value("ACAAAAAG")
"no"
>>> label_value("ACAAAAAA")
"yes"
>>> label_value("GCTTTTTA")
"yes"
>>> label_value("CCTTTTTA")
"no"

Determine whether this sequence has PBM 8-mer E-score no lower than 0.2: AGCCTCAT
no

Can CCTTTTCA be said to have PBM 8-mer E-score at or above 0.2?
yes

Has GGTTTGTA a recorded PBM 8-mer E-score greater than or equal to 0.2?
no

Item ACAAAAAC with PBM 8-mer E-score of 0.2 or above?
no

Is the recorded value of PBM 8-mer E-score equal to or greater than 0.2 for this sequence? ATTTGTAC
no

Quick check: does CCTAGCCG have PBM 8-mer E-score greater than or equal to 0.2?
no

Reported PBM 8-mer E-score reaches at least 0.2 for ACTTGATA ?
yes

Check the entry ACCAAAAT : does PBM 8-mer E-score equal or exceed 0.2?
no

Does PBM 8-mer E-score meet or surpass 0.2 for CCAAATCA ?
no

###

# Tested on: muMax20 (Max(13-93) K31hArg/K57hArg, M65Nle)
# assay_method_text: PBM 8-mer E-score (E-score (rank enrichment, -0.5 to 0.5)); higher = stronger preferential binding
Over roughly 33,000 sequences, “E-score (rank enrichment, -0.5 to 0.5)” has its median near -0.0068; the highest 2% begin near 0.24. The full list was thinned out, with the highest values kept by preference.
Measured PBM 8-mer E-score, listed per entry.
Number only, please.

Example entries and their recorded answers appear below.
>>> quantitative_readout("AAGCAAAT")
0.172
>>> quantitative_readout("CTCGTCCA")
-0.0336
>>> quantitative_readout("ACAGAGCC")
-0.0681

Answer briefly: PBM 8-mer E-score recorded on muMax20 (Max(13-93) K31hArg/K57hArg, M65Nle) for CGCCGACC
-0.14

Report PBM 8-mer E-score on muMax20 (Max(13-93) K31hArg/K57hArg, M65Nle) for this entry: ATACAACG
0.203

Would you please give the reported PBM 8-mer E-score of ACACAAAA with muMax20 (Max(13-93) K31hArg/K57hArg, M65Nle)?
0.208

###

# System: muMax20 (Max(13-93) K31hArg/K57hArg, M65Nle)
# assay_method_text: PBM 8-mer E-score (E-score (rank enrichment, -0.5 to 0.5)); higher = stronger preferential binding
Over roughly 33,000 sequences, “E-score (rank enrichment, -0.5 to 0.5)” has its median near -0.0068; the highest 2% begin near 0.24. The entries come from a sample that favours the highest values as a whole.
endpoint_label: PBM 8-mer E-score

Use these answered entries as a reference point.
>>> result("ACACATCT")
0.11
>>> result("ACGTGAAC")
0.0624
>>> result("ACACATGT")
0.346
>>> result("TCTCCGAA")
-0.233
>>> result("ACTTTCTG")
-0.00396

Send back muMax20 (Max(13-93) K31hArg/K57hArg, M65Nle) PBM 8-mer E-score of CCGTGATC only.
-0.311

Find PBM 8-mer E-score for GAAAACGA on muMax20 (Max(13-93) K31hArg/K57hArg, M65Nle) and write it down.
0.0327

Return reported PBM 8-mer E-score for target or system muMax20 (Max(13-93) K31hArg/K57hArg, M65Nle), item ACTTTCTA .
0.237

For muMax20 (Max(13-93) K31hArg/K57hArg, M65Nle), give PBM 8-mer E-score of the listed sequence: ACTTTCTC
0.0328

Print muMax20 (Max(13-93) K31hArg/K57hArg, M65Nle) PBM 8-mer E-score for AACGGAGT .
-0.013

Provide PBM 8-mer E-score, tested on muMax20 (Max(13-93) K31hArg/K57hArg, M65Nle), for AAAAACGC .
0.0604

Output reported PBM 8-mer E-score of the sequence ACGTGAGA on muMax20 (Max(13-93) K31hArg/K57hArg, M65Nle).
0.168

###

# System: muMax20 (Max(13-93) K31hArg/K57hArg, M65Nle)
# assay_method_text: PBM 8-mer E-score (E-score (rank enrichment, -0.5 to 0.5)); higher = stronger preferential binding
In all, about 33,000 sequences were measured (“E-score (rank enrichment, -0.5 to 0.5)”: median about -0.0068, highest 2% from about 0.24 on). Shown is part of a subset that was picked to be rich in the highest values.
endpoint_label: PBM 8-mer E-score
Quick one: just the number, no unit, thanks!

Write down measured PBM 8-mer E-score (muMax20 (Max(13-93) K31hArg/K57hArg, M65Nle)) for this sequence. CTTATTTA
0.0812

Report its PBM 8-mer E-score with muMax20 (Max(13-93) K31hArg/K57hArg, M65Nle) as the test system: AGCACTCG
-0.199

System muMax20 (Max(13-93) K31hArg/K57hArg, M65Nle). Read-out PBM 8-mer E-score. Item ATCTTGGC . Report value.
-0.108

Please report PBM 8-mer E-score with muMax20 (Max(13-93) K31hArg/K57hArg, M65Nle) for item CGTCTGGA .
-0.178

Provide muMax20 (Max(13-93) K31hArg/K57hArg, M65Nle) PBM 8-mer E-score reading for GAGTCCAA .
-0.159

Recall the reported PBM 8-mer E-score of CAATCACC on muMax20 (Max(13-93) K31hArg/K57hArg, M65Nle) and write it down.
0.139

###

# Test system: muMax20 (Max(13-93) K31hArg/K57hArg, M65Nle)
# assay_method_text: PBM 8-mer E-score (E-score (rank enrichment, -0.5 to 0.5)); higher = stronger preferential binding
In all, about 33,000 sequences were measured (“E-score (rank enrichment, -0.5 to 0.5)”: median about -0.0068, highest 2% from about 0.24 on). The full list was thinned out, with the highest values kept by preference.
endpoint_label: PBM 8-mer E-score
Form rule: numeric answer, no unit written next to it.

Sample answers from the record:
>>> quantitative_readout("ATGCATGC")
0.198
>>> quantitative_readout("ATGTATTG")
0.251
>>> quantitative_readout("ATGCATTC")
0.215
>>> quantitative_readout("CGTGAATC")
-0.00172

For muMax20 (Max(13-93) K31hArg/K57hArg, M65Nle), give the measured PBM 8-mer E-score of the entry AACTTGAT
0.198

Report PBM 8-mer E-score from muMax20 (Max(13-93) K31hArg/K57hArg, M65Nle) testing of CACCCGGG
-0.361

Quote PBM 8-mer E-score with test system muMax20 (Max(13-93) K31hArg/K57hArg, M65Nle) for ATTTCCTA
0.137
